target: human β3 adrenergic receptor (Homo sapiens, UniProt P13945); construct: expressed in transfected cells; host or cells: Chinese hamster ovary (CHO) cells, stably transfected; experiment: Functional assay: cAMP production (LANCE TR-FRET) in CHO cells stably transfected with cloned β3 adrenergic receptor; type: cell-based; conditions: Table 6; read-out: Human β3 Functional
Sequence (P13945 whole entry): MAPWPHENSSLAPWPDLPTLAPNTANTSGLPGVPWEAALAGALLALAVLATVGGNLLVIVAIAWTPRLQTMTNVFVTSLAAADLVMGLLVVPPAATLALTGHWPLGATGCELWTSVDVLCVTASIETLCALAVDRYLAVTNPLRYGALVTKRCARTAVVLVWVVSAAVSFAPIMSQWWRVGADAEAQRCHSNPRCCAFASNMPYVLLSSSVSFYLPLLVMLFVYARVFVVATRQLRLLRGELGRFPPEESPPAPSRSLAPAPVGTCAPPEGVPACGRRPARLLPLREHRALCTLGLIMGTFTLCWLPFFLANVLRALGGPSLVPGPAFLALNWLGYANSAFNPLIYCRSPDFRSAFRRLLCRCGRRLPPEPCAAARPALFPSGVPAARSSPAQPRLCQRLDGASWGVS
pEC50: −log10 of the molar value.
property-name: pEC50

Known results for compounds:
Nc1nc2c(s1)CCCC2C(=O)Nc1ccc(CC2CCC(C(O)c3ccccc3)N2)cc1 (single isomer, unassigned) [Example 227] | 6.00 to 7.00
Cc1nc2c(s1)CCCC2C(=O)Nc1ccc(CC2CCC(C(O)c3ccccc3)N2)cc1 (single isomer, unassigned) [Example 232] | 5.52 to 6.00
Nc1nc2c(s1)CCCC2C(=O)Nc1ccc(CC2CCC(C(O)c3ccccc3)N2)cc1 (single isomer, unassigned) [Example 228] | 5.52 to 6.00

Continue with the compound presented below.
input: Which value of pEC50 has been reported for Cc1nc2c(s1)CCCC2C(=O)Nc1ccc(CC2CCC(C(O)c3ccccc3)N2)cc1 (single isomer, unassigned) [Example 231] in the records?
output: 6.00 to 7.00

----------
Biological target: human β3 adrenergic receptor (Homo sapiens)
Construct: expressed in transfected cells; host or cells: Chinese hamster ovary (CHO) cells, stably transfected
Assay: Functional assay: cAMP production (LANCE TR-FRET) in CHO cells stably transfected with cloned β3 adrenergic receptor
Assay type: cell-based
Conditions: Table 10; β3AR-cAMP; read-out: Human β3 Functional
Protocol: Chinese hamster ovary (CHO) cells, stably transfected with the cloned β-adrenergic receptor (β1, β2 or β3) are harvested after 3 days of subculturing. Harvesting of cells is done with Enzyme-free Dissociation Media (Specialty Media). Cells are then counted and resuspended in assay buffer (Hank's Balanced salt solution supplemented with 5 mM HEPES, 0.1% BSA) containing a phosphodiesterase inhibitor (IBMX, 0.6 mM). […]
property-name: EC50

O=C(Nc1ccc(C[C@@H]2CC[C@H]([C@H](O)c3cccc(F)c3)N2)cc1)[C@H]1CCc2scnc21 [Example 278] | 11 to 100 nM
O=C(Cn1ncccc1=O)Nc1ccc(C[C@@H]2CC[C@H]([C@H](O)c3cccc(F)c3)N2)cc1 [Example 281] | 1 to 10 nM
O=C(Nc1ccc(CC2CCC(C(O)c3cccc(F)c3)N2)cc1)C1CCc2scnc21 (stereo not drawn) [Example 279] | < 1 nM
Nc1nc2c(s1)CCC2C(=O)Nc1ccc(CC2CCC(C(O)c3cccc(F)c3)N2)cc1 (single isomer, unassigned) [Example 276] | 11 to 100 nM
Cc1nnc(CC(=O)Nc2ccc(C[C@@H]3CC[C@H]([C@H](O)c4cccc(F)c4)N3)cc2)[nH]1 [Example 280] | 1 to 10 nM

Note: attention shifts to another entry.
input: Field request: EC50 | item: Nc1nc2c(s1)CCC2C(=O)Nc1ccc(CC2CCC(C(O)c3cccc(F)c3)N2)cc1 (single isomer, unassigned) [Example 277]
output: < 1 nM

----------
target: human β3 adrenergic receptor (Homo sapiens, UniProt P13945); construct: expressed in transfected cells; host or cells: Chinese hamster ovary (CHO) cells, stably transfected; test: Functional assay: cAMP production (LANCE TR-FRET) in CHO cells stably transfected with cloned β3 adrenergic receptor; format: cell-based; details: Table 7; β3AR-cAMP; read-out: Human β3 Functional
Below: a set of entries, each annotated with reported EC50.

Example entries begin here.
O=S(=O)(Nc1ccc(C[C@@H]2CC[C@H]([C@H](O)c3ccccc3)N2)cc1)c1cccc2ccccc12 | 101 to 1000 nM
Cc1nccc(-c2cccc(S(=O)(=O)Nc3ccc(C[C@@H]4CC[C@H]([C@H](O)c5ccccc5)N4)cc3)c2)n1 | 101 to 1000 nM
O=S(=O)(Nc1ccc(C[C@@H]2CC[C@H]([C@H](O)c3ccccc3)N2)cc1)c1ccc(-n2cccn2)cc1 | 101 to 1000 nM
O=S(=O)(Nc1ccc(C[C@@H]2CC[C@H]([C@H](O)c3ccccc3)N2)cc1)c1ccc(-c2cocn2)cc1 | 11 to 100 nM
Cc1nnc(-c2cccc(S(=O)(=O)Nc3ccc(C[C@@H]4CC[C@H]([C@H](O)c5ccccc5)N4)cc3)c2)o1 | 101 to 1000 nM

// switching to the query molecule
input: EC50 for `Cc1nn(C)c(Cl)c1S(=O)(=O)Nc1ccc(C[C@@H]2CC[C@H]([C@H](O)c3ccccc3)N2)cc1` ?
output: 1000 to 3000 nM
